B1: library; a variant is named by its letters at N, in order (parent)
chain: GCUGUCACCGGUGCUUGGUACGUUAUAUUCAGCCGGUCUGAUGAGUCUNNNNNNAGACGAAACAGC

# Variants of: B1
# method.summary: FACS-Seq fitted mean relative fluorescence mCherry/BFP with ligand (log10 relative fluorescence); HEK293T overexpressing SLC46A1; ligand concentration (+) FACS-Seq: 6 mM; higher = higher reporter protein expression
# condition.context: with (6R,S)-folinic acid; ligand present: yes
Please provide measured FACS-Seq fitted mean (log10) for the entries that follow.
Answers are plain numbers.

GUGUGA | 0.136
UGGGCG | 0.637
UGGUGA | 0.443
GACUAG | 0.493
UCUUUU | 0.26
UCGAAU | 0.308

Look at each variant and report its FACS-Seq fitted mean (log10).
1. AUAGGU
2. GUACUA
3. GUAAAC
4. UAUGAC
5. AGGUUU
6. CAAAAC
7. UUGCUA
8. AUACAG

Completion:
1: 0.695; 2: 0.428; 3: 0.507; 4: 0.413; 5: 0.561; 6: 0.589; 7: 0.377; 8: 0.394

For each of the variants below, note its FACS-Seq fitted mean (log10).
1. AAGUAA
2. GGGUGA
3. AAGGCC
4. AAGAGA
5. UGCUGG
6. CUCCGG
7. UUGGGU
8. AAGUUG

Completion:
1: 0.18; 2: 0.36; 3: 0.288; 4: 0.157; 5: 0.325; 6: -0.307; 7: 0.455; 8: 0.582

Give FACS-Seq fitted mean (log10) for each of the items listed below.
1. UCAAUG
2. GAGAAG
3. GUGAUA
4. GUCUCG
5. AACGUA
6. GCUUUA
7. GGUAAA

Completion:
0.195
0.219
0.371
0.197
0.207
0.0416
0.474

// for each variant below, give its FACS-Seq fitted mean (log10)
1. CAAGGG
2. ACAUCA
3. AAACGA
4. AAACGG
5. GCUUAC
6. ACAGUG
7. AUAGUG
8. GGUAUA

Completion:
-0.164
0.448
0.192
0.384
0.554
0.629
0.795
0.271

Give measured FACS-Seq fitted mean (log10) for every item shown.
1. CAUGUU
2. UGAGAU

Completion:
1. -0.27
2. 0.572
